Each record here notes measured inhibition at 1 µM.
Target entity: hDGAT1 (Homo sapiens)
Test: In-vitro DGAT1 assay (14C oleoyl CoA, hDGAT1 microsomes from Sf9 cells)
Condition summary: read-out: % Inhibition of hDGAT1

See these solved cases before continuing.
query: // query inhibition at 1 µM value for entry CCc1ccc(C(=O)Nc2ccc(-c3ccc4c(c3)C(=O)N([C@H](C(=O)O)C(C)C)C4)cc2)cc1 [Example 168]
result: > 50%

query: Looking for the measured inhibition at 1 µM of CCCCCc1ccc(C(=O)Nc2ccc(-c3ccc4c(c3)C(=O)N(C(C)(C)C(=O)O)C4)cc2)cc1 [Example 525] , can you help?
result: 10 to 50%

query: Query: inhibition at 1 µM; subject: CC(C)[C@@H](C(=O)O)N1Cc2ccc(-c3ccc(NC(=S)Nc4ccccc4F)cc3)cc2C1=O [Example 52]
result: 10 to 50%

query: May I ask what inhibition at 1 µM has been recorded for CC(C)[C@@H](C(=O)O)N1Cc2ccc(-c3ccc(NC(=O)c4ccc(C(C)(C)C)cc4)cn3)cc2C1=O [Example 404] ?
result: > 50%

query: Field request: inhibition at 1 µM | item: CC(C)[C@@H](C(=O)O)N1Cc2cc(-c3ccc(NS(=O)(=O)c4ccc(F)cc4F)cc3)ccc2C1=O [Example 291]
result: 10 to 50%

Next:
query: Which inhibition at 1 µM value is on record for CC(C)[C@@H](C(=O)O)N1Cc2ccc(-c3ccc(NC(=O)c4nc(-c5ccccc5)cs4)cc3)cc2C1=O [Example 624] ?
result: > 50%

query: Report inhibition at 1 µM for O=C(Nc1ccc(-c2ccc3c(c2)C(=O)N(C2(C(=O)O)CC2)C3)cc1)c1ccc(Cl)cc1 [Example 588] please.
result: > 50%

query: I'd like to know its inhibition at 1 µM. The compound in question is COc1ccc(S(=O)(=O)Nc2ccc(-c3ccc4c(c3)C(=O)N([C@H](C(=O)O)C(C)C)C4)cc2)cc1OC [Example 86]
result: 10 to 50%

query: Which inhibition at 1 µM is listed for CC(C)[C@@H](C(=O)O)N1Cc2ccc(-c3ccc(NC(=O)Nc4c(F)cccc4F)cc3)cc2C1=O [Example 20] ?
result: 10 to 50%

query: Field request: inhibition at 1 µM | item: CCCCOc1ccc(C(=O)Nc2ccc(-c3ccc4c(c3)C(=O)N([C@H](C(=O)O)C(C)C)C4)nc2)cc1 [Example 412]
result: > 50%

---

Reported inhibition at 1 µM is given for each of the following compounds.
Target entity: hDGAT1 (Homo sapiens)
Sequence (O75907 1-488): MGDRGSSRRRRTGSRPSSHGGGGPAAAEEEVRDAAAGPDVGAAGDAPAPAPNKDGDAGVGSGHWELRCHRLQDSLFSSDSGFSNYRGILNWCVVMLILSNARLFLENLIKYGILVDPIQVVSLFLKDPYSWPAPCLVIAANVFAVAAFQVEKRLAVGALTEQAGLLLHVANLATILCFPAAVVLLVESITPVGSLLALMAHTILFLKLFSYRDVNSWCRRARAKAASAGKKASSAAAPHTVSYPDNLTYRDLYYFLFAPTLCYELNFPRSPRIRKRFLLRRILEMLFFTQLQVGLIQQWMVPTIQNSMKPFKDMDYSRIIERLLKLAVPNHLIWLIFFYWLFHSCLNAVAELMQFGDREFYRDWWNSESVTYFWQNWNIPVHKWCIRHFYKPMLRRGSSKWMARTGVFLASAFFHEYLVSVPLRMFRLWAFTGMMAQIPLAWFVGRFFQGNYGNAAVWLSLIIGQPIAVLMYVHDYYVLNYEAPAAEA
Test: In-vitro DGAT1 assay (14C oleoyl CoA, hDGAT1 microsomes from Sf9 cells)
Condition summary: read-out: % Inhibition of hDGAT1

query: Query for hDGAT1 (Homo sapiens): what inhibition at 1 µM does the record show for CC(C)[C@@H](C(=O)O)N1Cc2ccc(-c3ccc(NC(=O)c4cc(-c5ccc(F)cc5)no4)cn3)cc2C1=O ?
result: > 50%

query: Find the measured inhibition at 1 µM: item CC(C)[C@@H](C(=O)O)N1Cc2ccc(-c3ccc(NC(=O)Nc4cccc(F)c4)cc3)cc2C1=O , target or system hDGAT1 (Homo sapiens).
result: 10 to 50%

query: Observed inhibition at 1 µM on hDGAT1 (Homo sapiens) for COc1cccc(NC(=S)Nc2ccc(-c3ccc4c(c3)CN([C@H](C(=O)O)C(C)C)C4=O)cc2)c1 , please.
result: 10 to 50%

Moving on to the next compound.
query: Report inhibition at 1 µM for CC(C)[C@@H](C(=O)O)N1Cc2cc(-c3ccc(NS(=O)(=O)Cc4ccccc4)cc3)ccc2C1=O tested on hDGAT1 (Homo sapiens).
result: 10 to 50%

---

Measured inhibition at 1 µM by item
Target entity: hDGAT1 (Homo sapiens, UniProt O75907)
Test: In-vitro DGAT1 assay (14C oleoyl CoA, hDGAT1 microsomes from Sf9 cells)
Condition summary: read-out: % Inhibition of hDGAT1

Sample records with inhibition at 1 µM:
query: If you can, please state the reported inhibition at 1 µM value of CCCCCc1ccc(C(=O)Nc2ccc(-c3ccc4c(c3)C(=O)N([C@H](C(=O)O)C(C)C)C4)c(F)c2)cc1 .
result: > 50%

query: # query: inhibition at 1 µM of entry CCCCCc1ccc(C(=O)Nc2ccc(-c3ccc4c(c3)C(=O)N([C@H](C(=O)O)C(C)C)C4)c(OC)c2)cc1
result: 10 to 50%

***
query: Requested field: inhibition at 1 µM. Item: CC(C)[C@@H](C(=O)O)N1Cc2cc(-c3ccc(NC(=O)c4ccc(Cl)cc4)cc3)ccc2C1=O
result: > 50%

query: Look up inhibition at 1 µM for this compound: CC(C)[C@@H](C(=O)O)N1Cc2ccc(-c3ccc(NS(=O)(=O)Cc4ccccc4)cc3)cc2C1=O
result: 10 to 50%

---

In this section, each of the compounds is paired with its reported inhibition at 1 µM.
Target entity: hDGAT1 (Homo sapiens, UniProt O75907)
Sequence (O75907 1-488): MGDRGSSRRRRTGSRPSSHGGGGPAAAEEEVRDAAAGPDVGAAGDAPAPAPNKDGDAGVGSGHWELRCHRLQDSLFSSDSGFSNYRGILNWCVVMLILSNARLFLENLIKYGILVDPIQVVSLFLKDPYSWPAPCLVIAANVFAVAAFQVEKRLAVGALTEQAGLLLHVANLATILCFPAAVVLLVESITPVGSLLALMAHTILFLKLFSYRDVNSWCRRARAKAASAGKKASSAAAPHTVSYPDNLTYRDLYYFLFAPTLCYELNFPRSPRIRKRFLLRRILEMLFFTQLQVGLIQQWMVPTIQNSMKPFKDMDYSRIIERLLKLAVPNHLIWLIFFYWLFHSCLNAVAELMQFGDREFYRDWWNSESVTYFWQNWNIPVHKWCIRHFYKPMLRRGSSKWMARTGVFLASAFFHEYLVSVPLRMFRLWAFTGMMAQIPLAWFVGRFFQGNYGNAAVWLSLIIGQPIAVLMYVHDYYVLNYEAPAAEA
Test: In-vitro DGAT1 assay (14C oleoyl CoA, hDGAT1 microsomes from Sf9 cells)
Condition summary: read-out: % Inhibition of hDGAT1

Below: 5 compounds and their reported inhibition at 1 µM.
query: Look up inhibition at 1 µM: O=C(Nc1ccc(-c2ccc3c(c2)C(=O)N(C2CCCC(C(=O)O)C2)C3)cc1)c1ccc(Cl)cc1 (stereo not drawn)
result: > 50%

query: # get_value(readout='inhibition at 1 µM', item= Cc1oc(-c2ccccc2)nc1C(=O)Nc1ccc(-c2ccc3c(c2)C(=O)N(C2CCCC(C(=O)O)C2)C3)cc1 (stereo not drawn) )
result: > 50%

query: // query inhibition at 1 µM value for entry CCCCOc1ccc(C(=O)Nc2ccc(-c3ccc4c(c3)C(=O)N([C@H](C(=O)O)C(C)C)C4)c(Cl)c2)cc1
result: > 50%

query: What value of measured inhibition at 1 µM is listed for CC(C)[C@@H](C(=O)O)N1Cc2cc(-c3ccc(NC(=O)c4cccc(Cl)c4)cc3)ccc2C1=O ?
result: 10 to 50%

query: Item Cc1ccc(C(=O)Nc2ccc(-c3ccc4c(c3)C(=O)N([C@H](C(=O)O)C(C)C)C4)cc2)cc1 has what recorded inhibition at 1 µM?
result: > 50%

Moving on to another compound below.
query: Looking for the measured inhibition at 1 µM of CC(C)[C@@H](C(=O)O)N1Cc2ccc(-c3ccc(NC(=O)c4ccccc4Oc4ccccc4)cc3)cc2C1=O , can you help?
result: > 50%

---

Target entity: hDGAT1 (Homo sapiens)
Test: In-vitro DGAT1 assay (14C oleoyl CoA, hDGAT1 microsomes from Sf9 cells)
Condition summary: read-out: % Inhibition of hDGAT1
Outcome measure: inhibition at 1 µM

Worked examples, 8 molecules total:
query: # returns recorded inhibition at 1 µM (system: hDGAT1 (Homo sapiens)) for CC(C)[C@@H](C(=O)O)N1Cc2ccc(-c3ccc(NC(=O)c4c(F)cccc4C(F)(F)F)cc3)cc2C1=O
result: 10 to 50%

query: So what inhibition at 1 µM did O=C(O)CCN1Cc2cc(-c3ccc(NC(=O)Nc4cccc(C(F)(F)F)c4)cc3)ccc2C1=O get with hDGAT1 (Homo sapiens)?
result: 10 to 50%

query: Write down the reported inhibition at 1 µM of CC(C)[C@@H](C(=O)O)N1Cc2ccc(-c3ccc(NC(=O)c4ccc(C(C)(C)C)cc4)cc3F)cc2C1=O , test system: hDGAT1 (Homo sapiens).
result: > 50%

query: // lookup inhibition at 1 µM | system=hDGAT1 (Homo sapiens) | key= COC[C@@H](C(=O)O)N1Cc2cc(-c3ccc(NC(=O)Nc4cccc(C(F)(F)F)c4)cc3)ccc2C1=O
result: 10 to 50%

query: hDGAT1 (Homo sapiens) / inhibition at 1 µM / CC(C)[C@@H](C(=O)O)N1Cc2cc(-c3ccc(NC(=O)Nc4cccc(C(F)(F)F)c4)cc3)ccc2C1=O : value?
result: > 50%

query: hDGAT1 (Homo sapiens) / inhibition at 1 µM / CC(C)[C@@H](C(=O)O)N1Cc2ccc(-c3ccc(NC(=O)c4ccc(Cl)cc4)cc3F)cc2C1=O : value?
result: 10 to 50%

query: Write down the reported inhibition at 1 µM of O=C(Nc1ccc(-c2ccc3c(c2)C(=O)N(C2(C(=O)O)CCC2)C3)cc1)c1ccc(C(F)(F)F)cc1 , test system: hDGAT1 (Homo sapiens).
result: > 50%

query: Entry CCCCCc1ccc(C(=O)Nc2ccc(-c3ccc4c(c3)C(=O)N(C3(C(=O)O)CCCC3)C4)cc2)cc1 , system hDGAT1 (Homo sapiens): what inhibition at 1 µM was measured?
result: > 50%

Next:
query: Notebook: pull reported inhibition at 1 µM for hDGAT1 (Homo sapiens), entry CC(C)(C)c1ccc(C(=O)Nc2ccc(-c3ccc4c(c3)C(=O)N(C3(C(=O)O)CCCC3)C4)cc2)cc1
result: > 50%

query: Any idea what inhibition at 1 µM came out for Cc1oc(-c2ccccc2)nc1C(=O)Nc1ccc(-c2ccc3c(c2)C(=O)N([C@H](C(=O)O)C(C)C)C3)nc1 on hDGAT1 (Homo sapiens)?
result: > 50%

query: Requested read-out inhibition at 1 µM, target or system hDGAT1 (Homo sapiens), entry CC(C)C[C@@H](C(=O)O)N1Cc2cc(-c3ccc(NC(=O)Nc4cccc(C(F)(F)F)c4)cc3)ccc2C1=O
result: 10 to 50%

query: Kindly state the measured inhibition at 1 µM obtained for CC(C)[C@@H](C(=O)O)N1Cc2ccc(-c3ccc(NC(=O)c4nc(-c5ccccc5)oc4C(F)(F)F)cn3)cc2C1=O with hDGAT1 (Homo sapiens).
result: > 50%

From: patent US8748426B2
